# Tested on: HT29 colon
# ASSAY_TEXT: NCI tumour cell line growth inhibition, 48 h
MEASURED_PARAMETER: TGI (µM)
Report the figure in µM without appending any unit label.

Ask: State, in one line, measured TGI of CCCCN(CCCC)CC(=O)c1ccc2cc(Cl)c3ccccc3c2c1
Reply: 46

Ask: State, in one line, measured TGI of COc1ccc(OC)c2c1C[C@@H]1C(C#N)N3[C@H](Cc4c(OC)ccc(OC)c4[C@@H]3C)C(=O)N1[C@H]2C (some centres undefined)
Reply: 30.4

Ask: State, in one line, measured TGI of C=C1C(=O)OC2C(C)C3C=CC(=O)[C@@]3(C)C(OC(=O)/C(C)=C/C)C1[C@@H]2OC(C)=O (some centres undefined)
Reply: 1.18

Ask: State, in one line, measured TGI of CC1CCN(c2nnc(Cl)cc2C(=O)c2ccccc2)CC1
Reply: 39.5

Ask: State, in one line, measured TGI of COc1ccc2c(c1)CC[C@@H]1C2CC[C@]2(C)OC(=O)CCC12 (some centres undefined)
Reply: 59.2

Next:
Ask: State, in one line, measured TGI of Cc1ccccc1NC(=O)NC(CC(N)=O)c1ccc2c(c1)nc(-c1cccc(Oc3ccc(C(C)(C)C)cc3)c1)n2CCCN1CCCCC1C (centres undefined)
Reply: 3.89

* * *

# Tested on: RPMI-8226 leukemia
# ASSAY_TEXT: NCI tumour cell line growth inhibition, 48 h
Entries and their measured GI50 follow.

Solved entries (count: 5):
Ask: // fetch GI50 for CCCNc1nc(-c2ccc(OC)cc2)nc2ccccc12 ; system: RPMI-8226 leukemia
Reply: 3960 nM

Ask: // fetch GI50 for CC(O)CN(CCN(CC(C)O)CC(C)O)CC(C)O.O=[N+]([O-])O.[Cu+2] (stereo not given) ; system: RPMI-8226 leukemia
Reply: > 100000 nM

Ask: // fetch GI50 for Cn1c2ccccc2c2c3c(c4c5ccccc5n(CCCCCC#N)c4c21)C(=O)N(O)C3=O ; system: RPMI-8226 leukemia
Reply: 609 nM

Ask: // fetch GI50 for C=C1C(=O)O[C@H]2[C@H]1CC/C(Cn1cc(CCC)nn1)=C\CC[C@@]1(C)O[C@@H]21 ; system: RPMI-8226 leukemia
Reply: 5520 nM

Ask: // fetch GI50 for CCCCCCCCSC1=CC(=O)C(OC)=C(OC)C1=O ; system: RPMI-8226 leukemia
Reply: 1270 nM

Next:
Ask: // fetch GI50 for CNCCNc1nc2ccccc2c2c(=O)c3cccc(OC)c3sc12 ; system: RPMI-8226 leukemia
Reply: 1430 nM

Ask: // fetch GI50 for O=C(NC(=S)NS(=O)(=O)c1ccc(N2N=C3c4ccccc4CC3C2c2cccs2)cc1)c1ccccc1 (stereo not given) ; system: RPMI-8226 leukemia
Reply: 29700 nM

Ask: // fetch GI50 for NC(N)=Nc1ccc(-n2nc(C(F)(F)F)cc2-c2ccc3c(ccc4ccccc43)c2)cc1 ; system: RPMI-8226 leukemia
Reply: 2160 nM

Ask: // fetch GI50 for COc1cc(/C=C/C(=O)c2ccc(Nc3nc(Nc4ccc(F)cc4)nc(Nc4ccc(F)cc4)n3)cc2)cc(OC)c1OC ; system: RPMI-8226 leukemia
Reply: 1810 nM

Ask: // fetch GI50 for NC(=O)NC(=O)CI ; system: RPMI-8226 leukemia
Reply: 5380 nM
